Sourced from patent US20130267551A1

The following compounds are listed with their measured radio-labelled ligand displacement, Adrenergic α1B values.
- System: Adrenergic α1B
- procedure summary: competitive radioligand binding, Adrenergic α1B
- setup conditions: compound concentration of 1 μM
- Procedure: Profiles of pharmacological activity of thieno-pyrrolo[3,2-c]pyridines of the general formula 1. […] The tested activity was determined by quantitative measurement of radio-labelled ligand displacement by tested compounds of the general formula 1 at their concentration of 1 μM.
Counter-ions that a name gives are not always drawn.
Your answer is read as %, so omit the unit and give the number.

// worked examples, radio-labelled ligand displacement, Adrenergic α1B included
compound	value reported
Cc1ccc(CCCn2c3c(c4c(Cl)csc42)CN(C)CC3)cc1 [3.12(5)•HCl]	89
Cc1cc2c3c(n(CC(O)c4ccccc4)c2s1)CCN(C)C3.Cl (stereo not shown) [3.7(1)•HCl]	89
Cc1ccc(CCCn2c3c(c4scc(Cl)c42)CN(C)CC3)cn1 [2.12(5)•HCl]	97
Cc1cc2c3c(n(Cc4ccccc4)c2s1)CCN(C)C3.Cl [3.5(1)•HCl]	57

**Q:** Indicate the recorded radio-labelled ligand displacement, Adrenergic α1B value for this compound: Cc1cc2c3c(n(CCc4ccc(Cl)cc4)c2s1)C(C)CN(C)C3 (stereo not shown) [3.6(4)•HCl]
**A:** 91

**Q:** Report measured radio-labelled ligand displacement, Adrenergic α1B; entry is Cc1ccc(Cn2c3c(c4sc(Cl)cc42)C(C)N(C)C(C)C3)cn1 (stereo not shown) [2.5(4)•HCl]
**A:** 38

**Q:** Please give the documented radio-labelled ligand displacement, Adrenergic α1B of Cc1cc2c(s1)c1c(n2CCc2ccccc2)CCN(C)C1.Cl [2.6(1)•HCl]
**A:** 90
